species on record: Homo sapiens; assay: Metabolic stability in human assessed per mg protein; assay type: ADME
Please respond with reported Stability for every item in the list.

Item "Cc1nc(-c2ccc(N3CCN(C)CC3)cc2)nc2c1CCN2CCN1CCOCC1" has what recorded Stability?
< 10 µL/min/mg

Item "CN1CCN(c2ccc(-c3ncc4c(n3)N(CCCN3CCCC3)CC4)cc2)CC1" has what recorded Stability?
71 µL/min/mg

Item "Cc1nc(-c2ccc(N3CCN(C)CC3)cc2)nc2c1CCN2CCCN1CCOCC1" has what recorded Stability?
< 10 µL/min/mg

---

Target: UniProt Q9NR96
Sequence (Q9NR96 whole entry): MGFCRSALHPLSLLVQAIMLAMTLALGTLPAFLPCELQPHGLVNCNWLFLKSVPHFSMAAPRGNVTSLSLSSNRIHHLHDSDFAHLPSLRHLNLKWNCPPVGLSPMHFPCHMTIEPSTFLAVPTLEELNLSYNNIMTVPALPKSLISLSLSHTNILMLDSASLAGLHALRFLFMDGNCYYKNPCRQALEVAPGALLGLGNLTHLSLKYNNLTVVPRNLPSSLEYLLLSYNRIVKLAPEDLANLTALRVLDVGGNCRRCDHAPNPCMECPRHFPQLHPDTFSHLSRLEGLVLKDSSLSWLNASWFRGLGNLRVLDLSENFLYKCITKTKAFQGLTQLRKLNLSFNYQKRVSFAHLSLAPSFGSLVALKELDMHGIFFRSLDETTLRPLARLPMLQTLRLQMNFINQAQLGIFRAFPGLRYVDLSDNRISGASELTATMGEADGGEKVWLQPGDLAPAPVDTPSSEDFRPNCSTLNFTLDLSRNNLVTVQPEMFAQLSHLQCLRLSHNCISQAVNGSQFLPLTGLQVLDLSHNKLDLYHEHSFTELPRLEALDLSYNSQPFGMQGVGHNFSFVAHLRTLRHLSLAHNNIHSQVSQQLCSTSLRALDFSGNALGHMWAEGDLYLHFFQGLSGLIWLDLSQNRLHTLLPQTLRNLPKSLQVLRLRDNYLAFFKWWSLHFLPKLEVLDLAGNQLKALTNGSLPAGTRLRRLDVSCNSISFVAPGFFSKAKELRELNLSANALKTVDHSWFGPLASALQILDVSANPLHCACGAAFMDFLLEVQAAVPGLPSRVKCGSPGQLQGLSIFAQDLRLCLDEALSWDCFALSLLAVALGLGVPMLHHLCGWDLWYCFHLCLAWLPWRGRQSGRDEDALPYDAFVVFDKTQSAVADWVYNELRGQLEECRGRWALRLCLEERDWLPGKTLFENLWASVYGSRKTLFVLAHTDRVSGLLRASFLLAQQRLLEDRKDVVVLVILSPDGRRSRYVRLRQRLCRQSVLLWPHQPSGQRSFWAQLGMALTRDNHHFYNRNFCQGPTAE
Assay: Antagonist activity at human TLR9 transfected in HEK293 cells after 6 hrs by NF-kappaB luciferase reporter assay
recorded metric: IC50 (nM)
The figure you give is taken to be in nM; do not add the unit.

Item "Cc1nc(-c2ccc(N3CCN(C)CC3)cc2)nc(NCCN2CCOCC2)c1C" has what recorded IC50?
35

Item "CN1CCN(c2ccc(-c3ncc4c(n3)N(CCN3CCOCC3)CC4)cc2)CC1" has what recorded IC50?
73

Item "CN1CCN(c2ccc(-c3ncc4c(n3)N(CCCN3CCOCC3)CC4)cc2)CC1" has what recorded IC50?
8.6

Item "Cc1nc(-c2ccc(N3CCN(C)CC3)cc2)nc2c1CCN2CCN1CCCC1" has what recorded IC50?
11

Item "Cc1nc(-c2ccc(N3CCN(C)CC3)cc2)nc2c1CCN2CCCN1CCOCC1" has what recorded IC50?
16
